Where these numbers come from: paper PMC4608253

Format: physicochemical, mice
condition-info: stability, extracted QC sample in auto-sampler, spiked concentration 3.9
Some compounds, each annotated with its measured Accuracy (RE, %) 4°C for 24 h.

{"columns": ["compound", "Accuracy (RE, %) 4°C for 24 h"],
 "data": [
  ["COc1cc(CCC(C)=O)ccc1O [zingerone]", 4.6],
  ["O=c1c(O)c(-c2ccc(O)c(O)c2)oc2cc(O)cc(O)c12 [quercetin, quecertin]", "−1.3"],
  ["COc1ccc(-c2coc3cc(O)ccc3c2=O)cc1 [Formononetin, formononetin]", "−8.9"]
]}

====

Type: physicochemical, mice
condition-info: stability in mice plasma/blood QC sample, spiked concentration 3.9
Some compounds, each annotated with its measured Accuracy (RE, %) 25°C for 6 h.

{"columns": ["compound", "Accuracy (RE, %) 25°C for 6 h"],
 "data": [
  ["CC1(C)[C@@H](O)CC[C@]2(C)[C@H]3C(=O)C=C4[C@@H]5C[C@@](C)(C(=O)O)CC[C@]5(C)CC[C@@]4(C)[C@]3(C)CC[C@@H]12 [GA, glycyrrhetinic acid]", "2.1%"],
  ["CCCCC[C@H](O)CC(=O)CCc1ccc(O)c(OC)c1 [(6)-Gingerol, 6-gingernol]", "2.8%"],
  ["COc1c(O)cc(O)c2c(=O)cc(-c3ccccc3)oc12 [Wogonin, wogonin]", "11.4%"],
  ["COc1cc(CCC(C)=O)ccc1O [zingerone]", "7.5%"],
  ["CC(C)=CCC[C@](C)(O[C@@H]1O[C@H](CO)[C@@H](O)[C@H](O)[C@H]1O)[C@H]1CC[C@]2(C)[C@@H]1[C@H](O)C[C@@H]1[C@@]3(C)CC[C@H](O)C(C)(C)[C@@H]3[C@@H](O[C@@H]3O[C@H](CO)[C@@H](O)[C@H](O)[C@H]3O[C@@H]3O[C@@H](C)[C@H](O)[C@@H](O)[C@H]3O)C[C@]12C [Re, ginsenoside Re]", "10.1%"],
  ["O=C(O)[C@H]1O[C@@H](Oc2cc3oc(-c4ccccc4)cc(=O)c3c(O)c2O)[C@H](O)[C@@H](O)[C@@H]1O [Baicalin, baicalin]", "−5.7%"]
]}

====

Some compounds, each annotated with its measured Accuracy (RE, %) 4°C for 24 h.
Assay type: physicochemical, mice
condition-info: stability, extracted QC sample in auto-sampler, spiked concentration 3.9

{"columns": ["compound", "Accuracy (RE, %) 4°C for 24 h"],
 "data": [
  ["CC1(C)[C@@H](O)CC[C@]2(C)[C@H]3C(=O)C=C4[C@@H]5C[C@@](C)(C(=O)O)CC[C@]5(C)CC[C@@]4(C)[C@]3(C)CC[C@@H]12", 5.4],
  ["COc1c(O)cc(O)c2c(=O)cc(-c3ccccc3)oc12", 9.2],
  ["O=c1cc(-c2ccccc2)oc2cc(O)c(O)c(O)c12", 12.3],
  ["CC(C)=CCC[C@](C)(O[C@@H]1O[C@H](CO)[C@@H](O)[C@H](O)[C@H]1O)[C@H]1CC[C@]2(C)[C@@H]1[C@H](O)C[C@@H]1[C@@]3(C)CC[C@H](O)C(C)(C)[C@@H]3[C@@H](O[C@@H]3O[C@H](CO)[C@@H](O)[C@H](O)[C@H]3O[C@@H]3O[C@@H](C)[C@H](O)[C@@H](O)[C@H]3O)C[C@]12C [Re, ginsenoside Re]", "−5.4"],
  ["CCCCC[C@H](O)CC(=O)CCc1ccc(O)c(OC)c1", 2.6],
  ["O=C(O)[C@H]1O[C@@H](Oc2cc3oc(-c4ccccc4)cc(=O)c3c(O)c2O)[C@H](O)[C@@H](O)[C@@H]1O", 3.8]
]}
